Data credit: PubChem BioAssay

# TARGET_UNDER_TEST: Focal adhesion kinase 1 (Homo sapiens)
# ASSAY_SUMMARY: small-molecule microarray binders of FAK, primary screen, biochemical, 635/667 nm fluorescence, BSA, DTT (AID 1130);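 further: composite of spot emission at 667 nm and signal to noise over triplicate slides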
# CONDITION_LABEL: PTK2 binding, 635 nm fluorescence, higher = more signal
Can you tell me composite z-score for the items I'm about to list?
// return a plain number; no unit text

In: Given the molecule `CCC(=O)[C@]12O[C@@]3([C@@H]4C(=O)OCC[C@@H]41)N(CC)C(C)=C(C(=O)OC)[C@@H](c1ccccc1)N3C2=O` , write its reported composite z-score.
Out: 0.335

In: Given the molecule `O=C1O[C@@H](c2ccccc2)[C@@H](c2ccccc2)N2[C@@H](c3ccc(O)cc3)[C@]3(C(=O)Nc4ccc(C#CC5(O)CCCCCC5)cc43)[C@@H](C(=O)Nc3nc4ccccc4s3)[C@H]12` , write its reported composite z-score.
Out: 0.706

In: Given the molecule `CO[C@H]1COC(=O)CC=C[C@H](C)[C@@H](OC)COC(=O)CC=C[C@@H]1C` , write its reported composite z-score.
Out: -0.415

In: Given the molecule `CCCC=C(CCC)[C@@H](NC(=O)c1ccccc1)c1ccccc1` , write its reported composite z-score.
Out: 1.04

In: Given the molecule `CCCNC(=O)[C@@H]1c2ccccc2C(=O)N(C2CCCCC2)[C@H]1c1ccc(CO)cc1` , write its reported composite z-score.
Out: 0.798

In: Given the molecule `COc1ccc([Si](C)(C)[C@H]2[C@H](CCO)O[C@@]3(C(=O)N(Cc4ccccc4)c4ccc(N5C(=O)c6cccc7cccc5c67)cc43)[C@@H]2C)cc1` , write its reported composite z-score.
Out: 0.209

In: Given the molecule C=C(C)[C@@H]1CC=C(C(O)C2C=CC3C(=O)NC(=O)C3N2Nc2ccccn2)CC1 (stereo not given in full) , write its reported composite z-score.
Out: -0.167

In: Given the molecule `O=C/C=C/c1ccccc1Cl` , write its reported composite z-score.
Out: 0.878

In: Given the molecule `COCCOC(=O)N1C(=O)[C@@]2(c3cc(C#CCNC(N)=O)ccc31)[C@H](c1ccc(OCCO)cc1)N1[C@H](c3ccccc3)[C@H](c3ccccc3)OC(=O)[C@H]1[C@@H]2C(=O)N1CCCCCCC1` , write its reported composite z-score.
Out: 0.422

In: Given the molecule `C#C[C@H](O[Si](C#Cc1ccccc1)(C(C)C)C(C)C)c1ccccc1` , write its reported composite z-score.
Out: -0.515

In: Given the molecule `CC(C)(C)OC(=O)CC[C@]1(C(=O)NCCN2CCOCC2)N=C(c2ccc(OCCCO)cc2)O[C@H]1c1ccccc1CN=[N+]=[N-]` , write its reported composite z-score.
Out: 1.17

In: Given the molecule CC(C)N1CC=CC23O[C@@H]4/C=C\CCCOC(=O)C4[C@H]2C(=O)N(CCO)[C@@H]3C1=O (stereo not given in full) , write its reported composite z-score.
Out: 0.339

In: Given the molecule `O=C1O[C@@H](c2ccccc2)[C@@H](c2ccccc2)N2[C@@H](c3ccc(OCCO)cc3)[C@]3(C(=O)Nc4ccc(C#CCCO)cc43)[C@@H](C(=O)N3CCN(c4ncccn4)CC3)[C@H]12` , write its reported composite z-score.
Out: 0.341

In: Given the molecule `COc1cccc([C@@H]2[C@@H](C)CC[C@H]3C(=O)N4[C@H](c5cccc(OC)c5)[C@@H](C)CC[C@H]4C(=O)N23)c1` , write its reported composite z-score.
Out: -0.175

In: Given the molecule `CN(C)C(=O)[C@@]1(Cc2ccccc2N=[N+]=[N-])N=C(c2ccc(OCCCO)cc2)O[C@H]1c1ccccc1CN=[N+]=[N-]` , write its reported composite z-score.
Out: 1.02
